Target: HA of A/Fort Monmouth/1/47 (H1N1) virus (influenza A virus)
Experiment: cell-based or functional assay
readout: Neutralization IC50, H1-FM47 (µg/mL)
Number only, in µg/mL; omit the unit.

Query: Entry under review: Antibody 6 (antibody, V domains shown) VH: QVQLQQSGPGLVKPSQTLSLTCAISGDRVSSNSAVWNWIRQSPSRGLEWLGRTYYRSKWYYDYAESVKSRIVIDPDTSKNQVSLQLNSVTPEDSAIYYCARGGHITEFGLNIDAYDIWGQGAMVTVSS VL: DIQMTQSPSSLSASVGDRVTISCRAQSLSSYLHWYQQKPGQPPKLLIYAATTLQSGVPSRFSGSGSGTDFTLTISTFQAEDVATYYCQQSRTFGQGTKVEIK . Reported Neutralization IC50, H1-FM47?
Result: 3.04

For the next question, use this binder.
Query: Entry under review: Antibody 8 (antibody, V domains shown) VH: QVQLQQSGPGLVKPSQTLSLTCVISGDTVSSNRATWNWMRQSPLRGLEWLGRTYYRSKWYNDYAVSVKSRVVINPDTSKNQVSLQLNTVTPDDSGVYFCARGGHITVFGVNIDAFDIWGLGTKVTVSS VL: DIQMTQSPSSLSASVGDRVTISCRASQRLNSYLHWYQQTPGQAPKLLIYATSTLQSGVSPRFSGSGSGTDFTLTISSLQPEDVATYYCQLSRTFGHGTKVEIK . Reported Neutralization IC50, H1-FM47?
Result: 1.37
